target of assay: Fyn (UniProt P06241)
Sequence (P06241 whole entry, looked up): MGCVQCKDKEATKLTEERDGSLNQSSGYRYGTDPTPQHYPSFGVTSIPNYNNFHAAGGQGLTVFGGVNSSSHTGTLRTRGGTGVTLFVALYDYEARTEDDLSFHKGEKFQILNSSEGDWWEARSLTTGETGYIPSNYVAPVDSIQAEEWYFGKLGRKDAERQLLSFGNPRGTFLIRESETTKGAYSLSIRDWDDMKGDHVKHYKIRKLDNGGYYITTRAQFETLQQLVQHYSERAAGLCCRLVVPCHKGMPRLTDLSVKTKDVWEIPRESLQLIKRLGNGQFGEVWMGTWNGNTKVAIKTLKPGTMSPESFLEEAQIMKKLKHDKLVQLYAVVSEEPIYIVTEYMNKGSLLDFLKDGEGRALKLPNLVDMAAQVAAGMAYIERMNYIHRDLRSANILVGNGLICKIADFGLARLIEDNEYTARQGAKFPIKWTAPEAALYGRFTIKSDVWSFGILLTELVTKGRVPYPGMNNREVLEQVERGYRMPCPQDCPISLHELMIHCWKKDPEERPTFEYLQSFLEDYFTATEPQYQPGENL
run description: phosphorylation enrichment, bacterial display (enrichment ratio); higher = better substrate or ligand; peptides without Tyr show the background;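 also: 11-residue human phosphosite peptides and single-mutation variants displayed on the E. coli surface, counted by deep sequencing, each peptide's frequency after selection divided by its frequency in the unselected input library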;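 also: frequency after pTyr selection over input frequency; kinase dosed for 20-30% of maximal phosphorylation in three min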
# binarize phosphorylation enrichment: threshold 0.5 inclusive, high side t, low side f

Below, 5 sequences whose answers are already recorded.
1) DQVEQCKKELE [LMNA_Y259_Y259C]	t
2) TENAGYYFRIS	f
3) FAKTQYPDIFA [CRX_Y63_V66I_YF]	f
4) RPSRWYQFRVA [ANOS1_Y259]	t
5) ADARMYGVHPW [PLP1_Y207_L210H]	t

Challenge: Quick check, phosphorylation enrichment >= 0.5? STFVPYEIKVQ [L1CAM_Y784]
Response given: t

Challenge: Quick check, phosphorylation enrichment >= 0.5? LGIDRYHAIVY [NPSR1_Y147_S143G]
Response given: f

Challenge: Quick check, phosphorylation enrichment >= 0.5? SFVMVYEGNAR [INSR_Y1038_G1035V]
Response given: t

Challenge: Quick check, phosphorylation enrichment >= 0.5? PLDGEYFILQI [TP53_Y327_T329I]
Response given: t

Challenge: Quick check, phosphorylation enrichment >= 0.5? PQGVGYPQQQQ [EP300_Y2219_P2221Q]
Response given: t

Challenge: Quick check, phosphorylation enrichment >= 0.5? APGDAYGDAGY [SYP_Y250]
Response given: f

Challenge: Quick check, phosphorylation enrichment >= 0.5? GDKKAYVRLAP [RPL23A_Y137_E133D]
Response given: f

Challenge: Quick check, phosphorylation enrichment >= 0.5? AAVDNYCRHNF [HLA-DRB1_Y107_T106N_YF]
Response given: t

Challenge: Quick check, phosphorylation enrichment >= 0.5? DDSSAYRSVDE [BCKDHA_Y345]
Response given: t

Challenge: Quick check, phosphorylation enrichment >= 0.5? VHNLNYYKKTT [FGFR3_Y647_D646N]
Response given: f

Challenge: Quick check, phosphorylation enrichment >= 0.5? YEDTLYTVLHR [UNC13D_Y61_A59T]
Response given: t
